- EXPERIMENT: Potassium channel opening activity in vitro using LtK cells transfected with Kir6.2/SUR2B exon 17
ASSAY_METRIC: log10(EC50) (log10 of the value in nM)
Short version: log10 scale, EC50, nM.

IN: # log10(EC50) lookup, item `O=C(Nc1c(C(O)(C(F)(F)F)C(F)(F)F)ccc2ccccc12)c1cccc(C(F)(F)F)c1`
OUT: 1.92

IN: # log10(EC50) lookup, item `O=C(Nc1c(C(O)(C(F)(F)F)C(F)(F)F)ccc2ccccc12)c1ccc(Cl)c(Cl)c1`
OUT: 2.29

IN: # log10(EC50) lookup, item `O=C(Nc1c(C(O)(C(F)(F)F)C(F)(F)F)ccc2ccccc12)C1CCCC1`
OUT: 2.69

IN: # log10(EC50) lookup, item `O=C(Nc1c(C(O)(C(F)(F)F)C(F)(F)F)ccc2ccccc12)c1ccccc1`
OUT: 1.64

IN: # log10(EC50) lookup, item `O=C(Nc1c(C(O)(C(F)(F)F)C(F)(F)F)ccc2ccccc12)c1ccc(Br)cc1`
OUT: 1.67

IN: # log10(EC50) lookup, item `C/C=C/C(=O)Nc1c(C(O)(C(F)(F)F)C(F)(F)F)ccc2ccccc12`
OUT: 1.86

Let's switch to this compound now.
IN: # log10(EC50) lookup, item `O=C(Nc1c(C(O)(C(F)(F)F)C(F)(F)F)ccc2ccccc12)c1cccc(Cl)c1`
OUT: 1.99

* * *

- EXPERIMENT: Potassium channel opening activity in vitro using LtK cells transfected with Kir6.2/SUR2B exon 17
ASSAY_METRIC: pEC50
Formally, pEC50 is defined as -log10 of the concentration c, with c in mol/L.

Solved cases (5 shown):
IN: # pEC50 lookup, item `O=C(Nc1c(C(O)(C(F)(F)F)C(F)(F)F)ccc2ccccc12)C1CCC1`
OUT: 7.35

IN: # pEC50 lookup, item `COc1cccc(C(=O)Nc2c(C(O)(C(F)(F)F)C(F)(F)F)ccc3ccccc23)c1`
OUT: 6.73

IN: # pEC50 lookup, item `O=C(Nc1c(C(O)(C(F)(F)F)C(F)(F)F)ccc2ccccc12)c1ccccc1Cl`
OUT: 5.69

IN: # pEC50 lookup, item `CC(=O)Nc1c(C(O)(C(F)(F)F)C(F)(F)F)cc(Br)c2ccccc12`
OUT: 5.27

IN: # pEC50 lookup, item CCC(C)C(=O)Nc1c(C(O)(C(F)(F)F)C(F)(F)F)ccc2ccccc12 (stereo not given)
OUT: 3.75

More entries:
IN: # pEC50 lookup, item `O=C(Nc1c(C(O)(C(F)(F)F)C(F)(F)F)ccc2ccccc12)c1cccs1`
OUT: 7.92

IN: # pEC50 lookup, item `O=C(Nc1c(C(O)(C(F)(F)F)C(F)(F)F)ccc2ccccc12)c1ccc(Cl)cc1`
OUT: 6.24

IN: # pEC50 lookup, item `CCC(=O)Nc1c(C(O)(C(F)(F)F)C(F)(F)F)ccc2ccccc12`
OUT: 7.82

IN: # pEC50 lookup, item `O=C(Nc1c(C(O)(C(F)(F)F)C(F)(F)F)ccc2ccccc12)c1ccc(C(F)(F)F)cc1`
OUT: 6.80

IN: # pEC50 lookup, item `O=C(Nc1ccc(Cl)cc1)Nc1c(C(O)(C(F)(F)F)C(F)(F)F)ccc2ccccc12`
OUT: 6.56

IN: # pEC50 lookup, item `CC(=O)Nc1c(C(O)(C(F)(F)F)C(F)(F)F)ccc2ccccc12`
OUT: 7.74

IN: # pEC50 lookup, item `CC(=O)Nc1c(C(O)(C(F)(F)F)C(F)(F)F)ccc2cc(O)ccc12`
OUT: 5.65

Recorded values, source BindingDB's records for doi:10.1016/s0960-894x(03)00205-1.
